- Tested on: L1210 leukemia ip in BDF1 mice, survival T/C
- PROCEDURE TEXT: NCI In Vivo Anticancer Drug Screen. Data for tumor model L1210 Leukemia (intraperitoneal) in B6D2F1 (BDF1) mice
- STATED CONDITIONS: endpoint: mean survival time; dose: 200.0 mg/kg/injection; schedule: Q04DX002 (ip); vehicle: saline; higher = longer survival
Inconclusive results and toxic doses are left out.

COMPOUND: CCN(C)C(=O)Nc1ccc(N)cc1
ASSAYED SYSTEM: L1210 leukemia ip in BDF1 mice, survival T/C
T/C: 104 % of control
--
COMPOUND: O=C([O-])CO.[Co+3].[NH2-].[NH2-].[NH2-].[NH2-].[NH2-].[O-][Cl+3]([O-])([O-])O
ASSAYED SYSTEM: L1210 leukemia ip in BDF1 mice, survival T/C
T/C: 100 % of control
--
COMPOUND: CC12CC3(O)OC(O1)C1(COC(=O)c4ccccc4)C3CC21OC1OC(CO)C(O)C(O)C1O (configuration not stated)
ASSAYED SYSTEM: L1210 leukemia ip in BDF1 mice, survival T/C
T/C: 107 % of control
--
COMPOUND: CC(=O)OCCn1c([N+](=O)[O-])cnc1/C=[N+](/[O-])CCO
ASSAYED SYSTEM: L1210 leukemia ip in BDF1 mice, survival T/C
T/C: 100 % of control
--
COMPOUND: CCO/C=N/N(C)c1n[n+]([O-])ccc1C
ASSAYED SYSTEM: L1210 leukemia ip in BDF1 mice, survival T/C
T/C: 104 % of control
--
COMPOUND: COC(=O)C1CCC(=O)CC1
ASSAYED SYSTEM: L1210 leukemia ip in BDF1 mice, survival T/C
T/C: 101 % of control
--
COMPOUND: COc1cc(/C=C2\C(O)C3CCN2CC3)cc(OC)c1OC (configuration not stated)
ASSAYED SYSTEM: L1210 leukemia ip in BDF1 mice, survival T/C
T/C: 118 % of control
--
COMPOUND: O=S(=O)(O)C(O)c1ccccc1 (configuration not stated)
ASSAYED SYSTEM: L1210 leukemia ip in BDF1 mice, survival T/C
T/C: 100 % of control
--
COMPOUND: CC1CN=C(c2ccc(O)c(O)c2)S1 (configuration not stated)
ASSAYED SYSTEM: L1210 leukemia ip in BDF1 mice, survival T/C
T/C: 107 % of control
--
COMPOUND: NCCSC1CCCCC1
ASSAYED SYSTEM: L1210 leukemia ip in BDF1 mice, survival T/C
T/C: 94 % of control
--
COMPOUND: COC1c2ccccc2CC1(C)C (configuration not stated)
ASSAYED SYSTEM: L1210 leukemia ip in BDF1 mice, survival T/C
T/C: 105 % of control
--
COMPOUND: CCCCOCCOCCOC(OCCOCCOCCCC)c1ccc2c(c1)OCO2
ASSAYED SYSTEM: L1210 leukemia ip in BDF1 mice, survival T/C
T/C: 92 % of control

###

- Tested on: L1210 leukemia ip in BDF1 mice, survival T/C
- PROCEDURE TEXT: NCI In Vivo Anticancer Drug Screen. Data for tumor model L1210 Leukemia (intraperitoneal) in B6D2F1 (BDF1) mice
- STATED CONDITIONS: endpoint: mean survival time; dose: 200.0 mg/kg/injection; schedule: Q01DX001 (ip); vehicle: saline; higher = longer survival
Inconclusive results and toxic doses are left out.

MOLECULE: Oc1ccc(Br)cc1/C=N/NC(=S)Nc1cccc2cccnc12
T/C: 94 % of control
--
MOLECULE: CCOC(=O)C(C(C)=O)C(CCc1cc(OC)ccc1OC)C(C(C)=O)C(=O)OCC (stereo not given)
T/C: 101 % of control
--
MOLECULE: Cc1ccc(NC(=O)OCCN(CCOC(=O)Nc2ccc(C)cc2)c2cccc(C)c2)cc1
T/C: 90 % of control
--
MOLECULE: CC(=O)Oc1ccccc1/C=C\C=O
T/C: 106 % of control
--
MOLECULE: O=[N+]([O-])c1cccc(/C=N/N2CCN(/N=C/c3cccc([N+](=O)[O-])c3)CC2)c1
T/C: 92 % of control

Data credit: PubChem BioAssay AID248
